The reported numbers originate from PubChem BioAssay (NCI).

- Test system: LOX IMVI melanoma
- experimental.protocol: NCI-60 one-dose screen, 48 h
- experimental.conditions: 10 µM
The panel holds about 83,000 compounds, 20% with a hit somewhere; the sample as a whole holds those more often. The source made the active and inactive calls. The calls were made as follows: active = growth percent below 10; inactive = the rest.
Choose the fitting class; nothing outside label 1 (active), label 0 (inactive) is accepted.

# molecule, answer.label
rows = [
    ("COc1ccc(/C(=C/c2cc(OC)c(OC)cc2[N+](=O)[O-])C(=O)O)cc1", "label 0"),
    ("O=C(NCCc1nccs1)c1cnc2c(S)cccc2c1", "label 1"),
    ("CC(=O)Nc1ccc2c(c1)C(N1CC3CCC(CC3)C1)c1ccccc1-2 (configuration not stated)", "label 0"),
    ("CNC(=S)Sc1ccc([N+](=O)[O-])cc1[N+](=O)[O-]", "label 0"),
    ("CC(C)CCN(CCCNc1c2c(nc3cc(Cl)ccc13)CCCC2)CCC(C)C", "label 0"),
    ("C/C(=N/NC(=O)c1sc(=S)n(C)c1N)c1cc2cc(Cl)ccc2o1", "label 0"),
    ("COc1ccc(-n2nnc3c(sc4ccccc43)c2=O)cc1", "label 0"),
    ("COc1cc(-c2nc(-c3nnc(-c4cccnc4)o3)c3ccccn23)cc(OC)c1OC", "label 0"),
    ("O=C(CSc1nnc(-c2ccc(Cl)cc2)o1)c1ccccc1", "label 0"),
    ("Oc1ccc(Cn2cc3c(c2-c2ccccc2)CCc2cnoc2-3)cc1", "label 0"),
]

Outcome logged for `CCOC(=O)c1cc2c(n1Cc1cc(OC)cc(OC)c1)-c1oncc1CC2` in this assay: label 0

Outcome logged for `CC(=O)OCC(COC(C)=O)(COC(C)=O)COC(C)=O` in this assay: label 0

Outcome logged for `O=c1ccc2nc(-c3ccccc3)nn(-c3ccccc3)c-2c1` in this assay: label 1

Outcome logged for `CC(C)OP(=O)(O)c1ncc(-c2ccc(C(F)(F)F)cc2)c(NC2CCCCCC2)n1` in this assay: label 0
